# target or system: HLA-A*02:03
# assay summary: IEDB peptide-MHC binding, purified MHC/competitive/radioactivity; filed as Kd, often an IC50 or EC50 that approximates it; bounds were set here for any values at or beyond the usual limits of such assays
# condition parameters: source organism: Vaccinia virus WR
assay endpoint: Kd (nM)
Express the result in nM but write the number alone.

Use the examples below as a reference point.
INPUT: Given the sequence AMHDKKIDI , what is its reported Kd?
OUTPUT: 1520

INPUT: Entry to check: LALTDVEKRI
OUTPUT: 403

INPUT: Entry to check: IVDKFGKNHI
OUTPUT: 5080

INPUT: Entry to check: TMSIYIAVA
OUTPUT: 40.8

INPUT: Entry to check: WISDNTHIYL
OUTPUT: 1.16

Next:
INPUT: Given the sequence RLPSETFPNV , what is its reported Kd?
OUTPUT: 14.1

INPUT: Entry to check: IQYRQQLELA
OUTPUT: 8470

---

# target or system: HLA-A*11:01
# assay summary: IEDB peptide-MHC binding, purified MHC/competitive/radioactivity; filed as Kd, often an IC50 or EC50 that approximates it; bounds were set here for any values at or beyond the usual limits of such assays
# condition parameters: source organism: Dengue virus 2 Jamaica/1409/1983
assay endpoint: Kd (nM)
Express the result in nM but write the number alone.

Use the examples below as a reference point.
INPUT: Request - read-out Kd | tested on HLA-A*11:01 | sequence MLQGRGPLK
OUTPUT: 124

INPUT: Entry to check: VQTKPGLFK
OUTPUT: 102

Turning to the following sequence.
INPUT: Request - read-out Kd | tested on HLA-A*11:01 | sequence GMSYSMCTGK
OUTPUT: 440

---

Quick list: pKd per entry.
# target or system: HLA-A*30:02
# assay summary: IEDB peptide-MHC binding, purified MHC/competitive/radioactivity; filed as Kd, often an IC50 or EC50 that approximates it; bounds were set here for any values at or beyond the usual limits of such assays
# condition parameters: source organism: SARS coronavirus Tor2
pKd: −log10 of the molar value.

Use the examples below as a reference point.
INPUT: Given the sequence KWADNNCYL , what is its reported pKd?
OUTPUT: ≤ 4.10

INPUT: Entry to check: GYQPYRVVVL
OUTPUT: ≤ 4.10

Turning to the following sequence.
INPUT: Given the sequence YFPREGVFVF , what is its reported pKd?
OUTPUT: ≤ 4.10

---

# target or system: HLA-A*26:01
# assay summary: IEDB peptide-MHC binding, purified MHC/competitive/radioactivity; filed as Kd, often an IC50 or EC50 that approximates it; bounds were set here for any values at or beyond the usual limits of such assays
# condition parameters: source organism: SARS coronavirus Tor2
Quick list: Kd per entry.

Use the examples below as a reference point.
INPUT: Given the sequence GYQPYRVVVL , what is its reported Kd?
OUTPUT: ≥ 69.7 µM

INPUT: Entry to check: NYMPYVFTLL
OUTPUT: ≥ 69.7 µM

Next:
INPUT: Given the sequence KWADNNCYL , what is its reported Kd?
OUTPUT: ≥ 77.9 µM

---

# target or system: HLA-B*51:01
# assay summary: IEDB peptide-MHC binding, purified MHC/competitive/radioactivity; filed as Kd, often an IC50 or EC50 that approximates it; bounds were set here for any values at or beyond the usual limits of such assays
# condition parameters: source organism: Vaccinia virus WR
pKd: −log10 of the molar value.
assay endpoint: pKd

INPUT: Given the sequence TFFSYLMKDK , what is its reported pKd?
OUTPUT: ≤ 4.16

INPUT: Entry to check: SFSLESDSIK
OUTPUT: ≤ 4.16

INPUT: Entry to check: KPDGSDSMDV
OUTPUT: ≤ 4.16

INPUT: Entry to check: NPDQNTFPNI
OUTPUT: ≤ 4.47

Next:
INPUT: Given the sequence KPDHDGNTPL , what is its reported pKd?
OUTPUT: ≤ 4.16

INPUT: Entry to check: SPGEIKPKF
OUTPUT: ≤ 4.15

---

# target or system: HLA-B*57:01
# assay summary: IEDB peptide-MHC binding, purified MHC/direct/fluorescence; filed as Kd, often an IC50 or EC50 that approximates it; bounds were set here for any values at or beyond the usual limits of such assays
# condition parameters: source organism: Camelpox virus M-96
Quick list: Kd per entry.

Use the examples below as a reference point.
INPUT: Request - read-out Kd | tested on HLA-B*57:01 | sequence DILASIIDY
OUTPUT: ≥ 20 µM

INPUT: Entry to check: YPAVINSNI
OUTPUT: ≥ 20 µM

Turning to the following sequence.
INPUT: Request - read-out Kd | tested on HLA-B*57:01 | sequence EIKDRILSY
OUTPUT: ≥ 20 µM

---

# target or system: HLA-B*07:02
# assay summary: IEDB peptide-MHC binding, purified MHC/competitive/radioactivity; filed as Kd, often an IC50 or EC50 that approximates it; bounds were set here for any values at or beyond the usual limits of such assays
# condition parameters: source organism: Vaccinia virus WR
pKd: −log10 of the molar value.
assay endpoint: pKd

Use the examples below as a reference point.
INPUT: Request - read-out pKd | tested on HLA-B*07:02 | sequence NPDQNTFPNI
OUTPUT: ≤ 4.16

INPUT: Entry to check: LMIFISSFLL
OUTPUT: ≤ 4.57

Turning to the following sequence.
INPUT: Request - read-out pKd | tested on HLA-B*07:02 | sequence SFSLESDSIK
OUTPUT: ≤ 4.16

---

# target or system: HLA-A*03:01
# assay summary: IEDB peptide-MHC binding, purified MHC/competitive/radioactivity; filed as Kd, often an IC50 or EC50 that approximates it; bounds were set here for any values at or beyond the usual limits of such assays
# condition parameters: source organism: SARS coronavirus Tor2
pKd: −log10 of the molar value.
Decide using pKd: a value greater than or equal to 7 is satisfied, a smaller one is not satisfied.

Examples with answers:
INPUT: pKd >= 7 for AINSVPWSK ?
OUTPUT: satisfied

INPUT: Entry to check: VVNARLRAK
OUTPUT: satisfied

INPUT: Entry to check: TSRTLSYYK
OUTPUT: not satisfied

INPUT: Entry to check: GSFCTQLNR
OUTPUT: not satisfied

Continue with the sequence presented below.
INPUT: pKd >= 7 for ALILAYSNK ?
OUTPUT: satisfied

---

Quick list: Kd per entry.
# target or system: HLA-A*02:06
# assay summary: IEDB peptide-MHC binding, purified MHC/competitive/radioactivity; filed as Kd, often an IC50 or EC50 that approximates it; bounds were set here for any values at or beyond the usual limits of such assays
# condition parameters: source organism: Vaccinia virus WR

Use the examples below as a reference point.
INPUT: Given the sequence QVKDNIISRT , what is its reported Kd?
OUTPUT: ≥ 34.2 µM

INPUT: Entry to check: LAYYNSCML
OUTPUT: ≥ 21.5 µM

INPUT: Entry to check: PTLFGRGVI
OUTPUT: ≥ 64.8 µM

INPUT: Entry to check: ITNILGGVL
OUTPUT: ≥ 32.4 µM

INPUT: Entry to check: SFSLESDSIK
OUTPUT: ≥ 59.7 µM

INPUT: Entry to check: TFFSYLMKDK
OUTPUT: ≥ 69.8 µM

INPUT: Entry to check: IQYRQQLELA
OUTPUT: ≥ 69.8 µM

INPUT: Entry to check: SARALKAYFT
OUTPUT: ≥ 25.7 µM

Next:
INPUT: Given the sequence DAKRNSKSLV , what is its reported Kd?
OUTPUT: ≥ 52.1 µM

INPUT: Entry to check: AMHDKKIDI
OUTPUT: ≥ 42 µM

INPUT: Entry to check: HTKFWISDNT
OUTPUT: ≥ 69.8 µM

INPUT: Entry to check: SAEDNYLAKL
OUTPUT: ≥ 69.8 µM

---

Quick list: log10 of Kd per entry.
# target or system: HLA-A*03:01
# assay summary: IEDB peptide-MHC binding, purified MHC/competitive/radioactivity; filed as Kd, often an IC50 or EC50 that approximates it; bounds were set here for any values at or beyond the usual limits of such assays
# condition parameters: source organism: Vaccinia virus WR
Quick note: numbers are log10 of Kd, with nM as the unit.

Use the examples below as a reference point.
INPUT: Given the sequence NLDPDNKMSY , what is its reported log10 of Kd?
OUTPUT: 2.98

INPUT: Entry to check: TFIDVHIPK
OUTPUT: 2.27

Turning to the following sequence.
INPUT: Given the sequence SFKSINKVY , what is its reported log10 of Kd?
OUTPUT: 3.26
